In this section, each of the compounds is paired with its reported inhibition at 1 µM.
biological target: human μ-opiate receptor (Homo sapiens); construct: purchased Nen company, Zaventem, Belgium RB-HOM; host or cells: CHO-K1 cells (membrane preparation); test: Affinity for the human μ-opiate receptor ([3H]-naloxone displacement, SPA, CHO-K1 membrane preparation); details: test substance 1 μmole/l; displacement of 1 nmole/l [3H]-naloxone; percentage inhibition of the specific binding; read-out: μ-opioid receptor, % inhibition [1 μM]
Sequence (P35372 whole entry): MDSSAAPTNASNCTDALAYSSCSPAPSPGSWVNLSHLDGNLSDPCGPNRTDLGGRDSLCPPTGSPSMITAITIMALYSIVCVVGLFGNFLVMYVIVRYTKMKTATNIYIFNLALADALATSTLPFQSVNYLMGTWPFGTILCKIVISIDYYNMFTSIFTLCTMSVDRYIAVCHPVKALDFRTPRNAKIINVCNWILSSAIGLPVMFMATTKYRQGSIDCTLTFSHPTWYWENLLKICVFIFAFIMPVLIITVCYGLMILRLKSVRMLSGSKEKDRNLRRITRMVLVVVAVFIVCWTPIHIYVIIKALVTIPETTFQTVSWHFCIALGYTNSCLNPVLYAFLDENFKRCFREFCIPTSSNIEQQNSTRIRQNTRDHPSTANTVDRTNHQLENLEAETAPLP
assay-endpoint: inhibition at 1 µM

>>> df
                                    compound  measurement
 0  CCN(CC)C(CC1CCC(C(c2ccc(F)cc2)N(C)C)CC1)c1nc(Cc2ccccc2)c(N(C)CCc2ccccc2)o1 (stereo not shown)          85%
 1  CN(C)C(c1ccc(Cl)cc1)C1CCC(CC(c2nc(Cc3ccccc3)c(N3CCC(Cc4ccccc4)CC3)o2)N2CCN(Cc3ccccc3)CC2)CC1 (stereo not shown)          87%
 2  CN(C)C(c1cccs1)C1CCC(C(c2nc(Cc3ccccc3)c(N3CCC(Cc4ccccc4)CC3)o2)N2CCN(Cc3ccccc3)CC2)CC1 (stereo not shown)          75%
 3  CN(Cc1ccccc1)c1oc(C(C2CCC(C(c3cccs3)N(C)C)CC2)N2CCCCC2)nc1Cc1ccccc1 (stereo not shown)          80%
 4  CN(C)C(c1cccs1)C1CCC(C(c2nc(Cc3ccccc3)c(N3CCCC3)o2)N2CCc3ccccc3C2)CC1 (stereo not shown)          92%
 5  CN(C)C(c1cccc(F)c1)C1CCC(CC(c2nc(Cc3ccccc3)c(N3CCCC3)o2)N2CCOCC2)CC1 (stereo not shown)          87%
 6  CCN(CC)C(CC1CCC(C(c2ccc(Cl)cc2)N(C)C)CC1)c1nc(Cc2ccccc2)c(N2CCSCC2)o1 (stereo not shown)          75%
 7  COc1ccc(N2CCN(C(CC3CCC(C(c4cccs4)N(C)C)CC3)c3nc(Cc4ccccc4)c(N4CC(C)OC(C)C4)o3)CC2)cc1 (stereo not shown)          93%
 8  CC1CN(c2oc(C(CC3CCC(C(c4cccc(F)c4)N(C)C)CC3)N3CCN(c4ccc(F)cc4)CC3)nc2Cc2ccccc2)CC(C)O1 (stereo not shown)          71%
 9  CN(C)C(c1cccs1)C1CCC(CC(c2nc(Cc3ccccc3)c(N3CCOCC3)o2)N2CCOCC2)CC1 (stereo not shown)          83%
10  COc1ccc(N2CCN(c3oc(C(C4CCC(C(c5cccc(F)c5)N(C)C)CC4)N4CCc5ccccc5C4)nc3Cc3ccccc3)CC2)cc1 (stereo not shown)          73%
11  CCN(CC)C(CC1CCC(C(c2ccc(Cl)cc2)N(C)C)CC1)c1nc(Cc2ccccc2)c(N2CC(C)CC(C)C2)o1 (stereo not shown)          79%
12  CC1CN(c2oc(C(C3CCC(C(c4cccc(F)c4)N(C)C)CC3)N3CCc4ccccc4C3)nc2Cc2ccccc2)CC(C)O1 (stereo not shown)          71%
